Source listed as paper PMC6981637.

target: AChE (from Electrophorus electricus) (Electrophorus electricus, UniProt O42275)
Sequence (O42275 24-633): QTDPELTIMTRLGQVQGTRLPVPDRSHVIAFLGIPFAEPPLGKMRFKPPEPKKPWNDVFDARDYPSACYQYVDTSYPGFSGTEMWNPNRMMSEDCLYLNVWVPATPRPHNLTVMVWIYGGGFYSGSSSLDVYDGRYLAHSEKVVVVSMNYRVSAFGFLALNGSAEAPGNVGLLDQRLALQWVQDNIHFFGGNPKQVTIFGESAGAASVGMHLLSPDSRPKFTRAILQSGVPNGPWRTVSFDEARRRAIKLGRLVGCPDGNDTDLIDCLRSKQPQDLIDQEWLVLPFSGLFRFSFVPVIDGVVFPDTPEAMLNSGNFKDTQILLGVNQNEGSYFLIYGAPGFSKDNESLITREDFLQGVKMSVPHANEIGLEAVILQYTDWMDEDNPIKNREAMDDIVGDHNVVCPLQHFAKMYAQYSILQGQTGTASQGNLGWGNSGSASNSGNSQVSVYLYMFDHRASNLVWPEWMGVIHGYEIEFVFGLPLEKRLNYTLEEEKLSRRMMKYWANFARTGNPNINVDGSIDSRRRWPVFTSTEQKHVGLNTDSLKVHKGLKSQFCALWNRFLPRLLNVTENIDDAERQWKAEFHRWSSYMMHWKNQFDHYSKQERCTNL
Quick rule: SI of at least 0.9 means yes (1), below that means no (0).

Consider the following illustrative entries.
MOLECULE	ASSAY_SYSTEM	LABEL
O=C1CCCN1C1CCN(Cc2cc(-c3ccccc3)no2)c2ccc(F)cc21 (stereo not drawn) [6u]	AChE (from Electrophorus electricus) (Electrophorus electricus, UniProt O42275)	no (0)
COc1ccc(-c2cc(CN3CCC(N4CCCC4=O)c4cc(OC)ccc43)on2)cc1 (stereo not drawn) [6i]	AChE (from Electrophorus electricus) (Electrophorus electricus, UniProt O42275)	yes (1)
CCc1ccc2c(c1)C(N1CCCC1=O)CCN2Cc1cc(-c2ccccc2)no1 (stereo not drawn) [6q]	AChE (from Electrophorus electricus) (Electrophorus electricus, UniProt O42275)	yes (1)
O=C1CCCN1C1CCN(Cc2cc(-c3ccccc3)no2)c2ccc(Cl)cc21 (stereo not drawn) [6l]	AChE (from Electrophorus electricus) (Electrophorus electricus, UniProt O42275)	no (0)
COc1ccc(-c2cc(CN3CCC(N4CCCC4=O)c4cc(C)cc(Cl)c43)on2)cc1OC (stereo not drawn) [6f]	AChE (from Electrophorus electricus) (Electrophorus electricus, UniProt O42275)	yes (1)

Query: Please indicate if the recorded SI for COc1ccc(-c2cc(CN3CCC(N4CCCC4=O)c4cc(Cl)ccc43)on2)cc1 (stereo not drawn) [6m] meets or exceeds 0.9.
Response: yes (1)

Query: Assess whether reported SI for O=C1CCCN1C1CCN(CC2CC(c3ccccc3)=NO2)c2ccc(Cl)cc21 (stereo not drawn) [5m] sits at 0.9 or higher.
Response: no (0)

Query: Given O=C1CCCN1C1CCN(Cc2cc(-c3ccccc3)no2)c2ccc(Br)cc21 (stereo not drawn) [6y] , state whether its SI is at least 0.9.
Response: no (0)

Query: Answer whether SI of COc1ccc(-c2cc(CN3CCC(N4CCCC4=O)c4cc(Br)ccc43)on2)cc1 (stereo not drawn) [6z] is greater than or equal to 0.9.
Response: no (0)

====

target: BChE (from bovine serum) (Bos taurus); construct: purchased Sigma-Aldrich; assay: BChE inhibitory activity (Ellman method); type: biochemical; conditions: Table 2, THQ–isoxazole hybrids 6; average from three independent experiments ± SEM; read-out: BChE (IC50)
Sequence (P32749 29-602): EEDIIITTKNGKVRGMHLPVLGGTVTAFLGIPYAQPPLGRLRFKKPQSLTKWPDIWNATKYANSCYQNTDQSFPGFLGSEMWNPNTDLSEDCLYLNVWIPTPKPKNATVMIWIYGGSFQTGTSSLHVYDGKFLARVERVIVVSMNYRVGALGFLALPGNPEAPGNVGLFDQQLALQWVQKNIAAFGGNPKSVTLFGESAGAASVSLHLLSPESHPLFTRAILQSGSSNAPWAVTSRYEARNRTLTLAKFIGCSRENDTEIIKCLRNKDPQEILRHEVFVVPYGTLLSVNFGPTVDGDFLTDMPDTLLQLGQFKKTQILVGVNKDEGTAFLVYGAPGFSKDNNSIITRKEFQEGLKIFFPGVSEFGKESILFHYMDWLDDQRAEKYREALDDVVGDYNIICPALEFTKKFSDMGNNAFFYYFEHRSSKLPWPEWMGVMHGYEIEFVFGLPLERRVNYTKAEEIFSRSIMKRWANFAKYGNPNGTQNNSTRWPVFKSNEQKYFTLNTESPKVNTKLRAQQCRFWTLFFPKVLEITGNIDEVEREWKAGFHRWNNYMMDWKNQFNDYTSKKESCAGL
What pIC50 was measured for each of the following?
Give bare numbers, as −log10 of the molar value.

# count of solved cases: 8
MOLECULE	REPORTED
COc1cc(-c2cc(CN3CCC(N4CCCC4=O)c4cc(Cl)ccc43)on2)cc(OC)c1OC (stereo not drawn) [6p]	4.33
COc1ccc(-c2cc(CN3CCC(N4CCCC4=O)c4cc(C)cc(Cl)c43)on2)cc1OC (stereo not drawn) [6f]	3.43
COc1cc(-c2cc(CN3CCC(N4CCCC4=O)c4cc(C)ccc43)on2)cc(OC)c1OC (stereo not drawn) [6g]	4.11
COc1ccc(-c2cc(CN3CCC(N4CCCC4=O)c4cc(OC)ccc43)on2)cc1 (stereo not drawn) [6i]	3.67
COc1ccc(-c2cc(CN3CCC(N4CCCC4=O)c4ccccc43)on2)cc1 (stereo not drawn) [6b]	4.56
COc1cc(-c2cc(CN3CCC(N4CCCC4=O)c4cc(F)ccc43)on2)cc(OC)c1OC (stereo not drawn) [6x]	3.79
COc1ccc2c(c1)C(N1CCCC1=O)CCN2Cc1cc(-c2cc(OC)c(OC)c(OC)c2)no1 (stereo not drawn) [6k]	4.14
COc1cc(Cl)c2c(c1)C(N1CCCC1=O)CCN2Cc1cc(-c2ccc(OC)c(OC)c2)no1 (stereo not drawn) [6j]	3.83

Please go through the list and note pIC50 for each molecule.
1. COc1cc(-c2cc(CN3CCC(N4CCCC4=O)c4cc(Br)ccc43)on2)cc(OC)c1OC (stereo not drawn) [6ab]
2. O=C1CCCN1C1CCN(Cc2cc(-c3ccccc3)no2)c2ccc(Cl)cc21 (stereo not drawn) [6l]

Response:
1: 4.27; 2: 4.85

Dear colleague, could you please provide pIC50 for the molecules listed below?
1. O=C1CCCN1C1CCN(Cc2cc(-c3ccccc3)no2)c2ccc(F)cc21 (stereo not drawn) [6u]
2. COc1ccc(-c2cc(CN3CCC(N4CCCC4=O)c4cc(Cl)ccc43)on2)cc1 (stereo not drawn) [6m]
3. Cc1ccc2c(c1)C(N1CCCC1=O)CCN2Cc1cc(-c2ccccc2)no1 (stereo not drawn) [6d]

Response:
4.75
4.73
4.73

Need pIC50 for each of these molecules.
1. COc1ccc(-c2cc(CN3CCC(N4CCCC4=O)c4cc(Cl)ccc43)on2)cc1OC (stereo not drawn) [6n]
2. COc1cc(-c2cc(CN3CCC(N4CCCC4=O)c4ccccc43)on2)cc(OC)c1OC (stereo not drawn) [6c]

Response:
4.61
4.32

For each listed entry, give its pIC50.
1. COc1ccc(-c2cc(CN3CCC(N4CCCC4=O)c4cc(F)ccc43)on2)cc1OC (stereo not drawn) [6w]
2. COc1ccc2c3c1O[C@H]1C[C@@H](O)C=C[C@@]31CCN(C)C2 [Galantamine, galantamine, reference compound]

Response:
1: 4.33; 2: 5.06

Query: Item CCc1cc(Cl)c2c(c1)C(N1CCCC1=O)CCN2Cc1cc(-c2ccc(OC)c(OC)c2)no1 (stereo not drawn) [6s] with BChE (from bovine serum) (Bos taurus) - pIC50?
Response: 4.65
